// provenance: the DeepSol protein solubility set

- procedure-summary: soluble on expression in E. coli; label from the status in PepcDB or PDB records
measurement-type: soluble on expression in E. coli

Look over these answered cases.
{"sequence-content": "MQPDNYFILAQKPITEPSASVMGQVKNDVKKEEPKNEEKKPGDENKNPAAVGAEGAGAAEKPQDKSQKPFPEIKMPTESMKKKKNTDNEIDKRKKMKTGFYQEKSDEDDTLEKIESLKVEQSDKTKKSQKKKLTLENGEKKV", "assay-value": "not soluble"}
{"sequence-content": "SAFVAALSAAGLPTDAFVFEGFLPTRGKRRLEKLANLKGEQRVVIFYEAPGRLQAALADMREVLGDRHVVVARELTKIHEEFVRGRVSFVAEHFAAVDVKGEVVILVAPAPAP", "assay-value": "soluble"}
{"sequence-content": "MKIGVFDSGVGGFSVLKSLLKARLFDEIIYYGDSARVPYGTKDPTTIKQFGLEALDFFKPHEIELLIVACNTASALALEEMQKYSKIPIVGVIEPSILAIKRQVEDKNAPILVLGTKATIQSNAYDNALKQQGYLNISHLATSLFVPLIEESILEGELLETCMHYYFTPLEILPEVIILGCTHFPLIAQKIEGYFMGHFALPTPPLLIHSGDAIVEYLQQKYALKNNACTFPKVEFHASGDVIWLERQAKEWLKL", "assay-value": "soluble"}
{"sequence-content": "MSLTETAIENSVTVFHIESDEIKGRIIGREGRNIRALEAATGVEIVVDDTPEAIVLSAFDPVRREIARLALHQLVTDGRIHPARIEEVVAKVRKQVEEEIIETGKRTTIDLGIHGLHPELIRIIGKMKYRSSYGQNLLQHARETANLCAVMASELGLNPKKAKRAGLLHDIGKVPDEEPELPHALLGMKLAEKFKEKPDICNAIGAHHDEIEMTSLLAPIVQVCDAISGARPGARREIVEAYIKRLNDLEQLAMSYPGVTKTYAIQAGRELRVIVGADKIDDKQTENLSGEIAKKIQDEMTYPGQVKITVIRETRAVSFAKEGHHHHHH", "assay-value": "soluble"}
{"sequence-content": "MAHHHHHHMLSTACRAPVRGRAYCGCNRGLVSFSFYSTFAGDRRGAGGDETSGANSGGSGDSGETPKASKATVEERRRMAKSWENAFFGRVHYEPGMHDRYQAALDAEVEEHATLDEKDRCDRLPNWPDDEETPLHEFLQLSDAAKKRYIVRRLTMGERRINYAPYYGSLLMMQHLNLGELMISDAEHLVRESGWMTECVASKIEAVRECASKIKFEYDLD", "assay-value": "not soluble"}
{"sequence-content": "LQMLTLEEWAAEKYRSNPPSVSTLRRYAKQNLFCPPAMKQGRLWRVREDAELVGELVTPVIKKNDSLLLQRILSNGSQTA", "assay-value": "not soluble"}

API: the following record is the query input.
If you can, please state the reported soluble on expression in E. coli value of MEVKEVELELSSEATFLSKTSIGEITAGEKGLNPMELLLVSIGSCSGVDVYHILKKKRQEVKDIKIFLKGKRREKHPKIYEEIEIKYVAVGKVEEKALEQAVKLSTEKYCSVLAMVKPSTNLKISWEVKWEE .
soluble
